target: BSA (UniProt P02769); assay: ELISA, BSA coated (control), E. coli supernatant, anti-VHH-HRP
Sequence (P02769 25-607 limits assumed): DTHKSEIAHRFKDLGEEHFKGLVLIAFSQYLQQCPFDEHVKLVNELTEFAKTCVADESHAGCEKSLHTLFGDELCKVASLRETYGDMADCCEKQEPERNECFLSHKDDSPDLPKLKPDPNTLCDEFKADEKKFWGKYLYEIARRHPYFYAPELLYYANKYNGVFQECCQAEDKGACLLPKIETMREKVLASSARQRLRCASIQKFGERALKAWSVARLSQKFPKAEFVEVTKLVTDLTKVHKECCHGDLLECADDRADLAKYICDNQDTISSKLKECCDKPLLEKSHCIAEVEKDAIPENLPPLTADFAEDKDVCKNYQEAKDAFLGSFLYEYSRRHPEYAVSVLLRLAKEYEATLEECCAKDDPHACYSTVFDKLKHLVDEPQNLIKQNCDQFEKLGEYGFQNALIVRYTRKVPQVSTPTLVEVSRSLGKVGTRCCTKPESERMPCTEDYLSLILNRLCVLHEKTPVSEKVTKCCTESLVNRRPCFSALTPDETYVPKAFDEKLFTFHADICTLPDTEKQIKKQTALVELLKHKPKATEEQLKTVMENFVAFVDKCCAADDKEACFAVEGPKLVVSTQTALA
Let's look at some binders and their measured OD Value Obtained after Binding to BSA.
readout-name: OD Value Obtained after Binding to BSA (OD 450 nm)

* B4-D3 (VHH) VHH: QLQLVESGGGLVQPGGSLRLSCVASGASGISFSNRGMAWYRQAPGKQRELVAAIDSAGSPAYAGSVKGRFTISRDNAKNTVFLQMNSLKPEDTAVYYCNQPRFNLWGLGTQVTVSS | 0.059
* B2-A6 (VHH) VHH: QLQLVESGGGLVQAGGSLRLSCFVSGSTFSASLMGWYRQAPGKERELVAGISNIGNTVYADSAKGRFTISRDGAKNTVHLQMNALKPEDTAVYYCYATVPRAAWGQGTQVTVSS | 0.049
* B3-C11 (VHH) VHH: EVQLVESGGGLVQAGGSLRLSCFVSGSTFSASLMGWYRQAPGKERELVAGISNIGNTVYADSAKGRFTISRDGAKNTVHLQMNALKPEDTAVYYCYATVPRAAWGQGTQVTVSS | 0.071
* B2-E2 (VHH) VHH: EVQLVESGGGLVQPGESLRLSCVASGFPSGFTFSDYQMYWYRQAPGKERELVAIISNDGLRKTYADSVKGRFTISRDNAKNTMFLQMNSLKPEDTAVYVCNVRRANRDDWGQGTQVTVSS | 0.07
